system: T1, human Aβ (1-40) peptide (human)
T1 construct: also called Aβ1-40 fibers
assay-notes: SPR, immobilized fibers;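 note: biacore SPR using in vitro grown Aβ1-40 or Aβ1-42 fibrils immobilized on the chip with Fab analytes, KD from koff/kon fits or equilibrium isotherms based on total Fab concentration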
quantity-name: pKd
Notebook: values listed as pKd are -log10 of the concentration (mol/L).

Lab book: pKd of MS-Roche #7.12.H1 Fab (Fab, V domains shown) VH: QVQLVESGGGLVQPGGSLRLSCAASGFTFSSYGMSWVRQAPGKGLEWVSNINGNGNRKYYADSVKGRFTISRDNSKNTLYLQMNSLRAEDTAVYYCARGKGNTHKPYGYVRYFDVWGQGTLVTVSS VL: DIVLTQSPATLSLSPGERATLSCRASQYVFRRYLAWYQQKPGQAPRLLISGSSNRATGVPARFSGSGSGTDFTLTISSLEPEDFAVYYCLQLYNIPNTFGQGTKVEIKR noted as 9.22
